Cited source: patent US20240409645A1

# Target desc: T1, human common cytokine receptor γ-chain (γc; IL-2Rγ; CD132), recombinant protein (human, UniProt P31785 23-262)
# T1 construct: also called human IL-2R subunit CD132
# T1 sequence: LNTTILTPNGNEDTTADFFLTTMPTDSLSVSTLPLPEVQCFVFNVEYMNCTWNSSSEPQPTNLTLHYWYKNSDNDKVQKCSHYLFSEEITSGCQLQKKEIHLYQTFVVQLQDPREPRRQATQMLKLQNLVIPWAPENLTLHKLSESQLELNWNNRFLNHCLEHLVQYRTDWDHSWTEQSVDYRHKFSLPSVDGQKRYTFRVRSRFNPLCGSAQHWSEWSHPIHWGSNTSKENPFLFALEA
# Protocol details: ELISA, bivalent VHH-hFc
Quantity measured: pEC50
Here pEC50 is given on a logarithmic scale as minus log10 of the concentration in mol/L.

Reference set (2 entries):
28-MP04D02 VHH-hFc, monospecific bivalent (Fc fusion, IgG1 Fc LALA-PG; also called clone 28; not shown: human IgG1 CH2 and CH3 domains (Fc)) QVQLVESGGGLVQAGGSLRLSCAASGRTLSRYAMGWFRQAPGKEREFVTANSWGGDTYYADSVQGRFTFSRDNAKNTVYLQMNSLQPEDTAVYYCAAAPTSFATTAYSGSNSYAYWGQGTQVTVSS: 9.97
37-MP07F09 VHH-hFc, monospecific bivalent (Fc fusion, IgG1 Fc LALA-PG; not shown: human IgG1 CH2 and CH3 domains (Fc)) QVQLVESGGGLVQAGGSLRLSCAASGRTLSRYAMGWFRQAPGKEREYVAIDSWGGDTFYADSVEGRFTFSRDNAKNEVYLQMNSLQPEDTAVYYCAGAPTSFATTAYSSSNSYRYWGQGTQVTVSS: 9.86

Query: For the binder 38-MP07A11 VHH-hFc, monospecific bivalent (Fc fusion, IgG1 Fc LALA-PG; not shown: human IgG1 CH2 and CH3 domains (Fc)) QVQLVESGGGLVQAGGSLRLSCAASGRSLSRDAMGWFRQAPGKEREFVAVMSWGGDTFYTDSVEGRFTFSRDNAKNAVYLEMNDLQPEDTAVYYCAAAPTSFATTAYSSSNSYSYWGRGTQVTVSS , what pEC50 is on record?
Reply: 9.95

Query: Next entry: 29-MP04H02 VHH-hFc, monospecific bivalent (Fc fusion, IgG1 Fc LALA-PG; not shown: human IgG1 CH2 and CH3 domains (Fc)) QVQLVESGGGLVQAGGSLRLACVASGLTFDNYYMGWFRQAPGKEREFVAGIIWNGDHTAYADSIKGRFTISRDNAKNTAYLRMNSLKPEDTAVYYCAATFWIERATTPDIGQYAYWGQGTQVTVSS
Reply: 9.75
